# System: NCI-H322M
# test: 60-cell-line screen: NCI-H322M (Non-Small Cell Lung)
# Format: cell-based
# recorded_conditions: read-out: LC50 (the source's name)
property: CC50 (nM)
Note: unit nM is implicit; provide only the numeric part.

Qu. Specify measured CC50 for C=C1C[C@H]2C(O)Nc3cc(OCCCOc4cc5c(cc4OC)C(=O)N4CC(=C)C[C@H]4C(O)N5)c(OC)cc3C(=O)N2C1 (stereo partly shown) .
Ans. 1000

* * *

# Test system: SNB-75
# test: 60-cell-line screen: SNB-75 (Central Nervous System)
# Assay type: cell-based
# recorded_conditions: read-out: LC50 (the source's name)
property: CC50 (nM)
Note: unit nM is implicit; provide only the numeric part.

Qu. Specify measured CC50 for C=C1C[C@H]2C(O)Nc3cc(OCCCOc4cc5c(cc4OC)C(=O)N4CC(=C)C[C@H]4C(O)N5)c(OC)cc3C(=O)N2C1 (stereo partly shown) .
Ans. 468
